Tested on: constitutively GA-deficient transgenic dwarf soybean line 719
Protocol: Experiment II second greenhouse test, seed imbibition, GA-deficient soybean
Format: in vivo, Glycine max
Experimental Parameters: 0.0025 mg/ml; seeds imbibed 6 hours
Protocol: (The compounds are tested in Experiment I at only one concentration, i.e., 0.25 mg/ml). Test tubes contained […] of ethanol solution per tube. Final volumes are made up to 30 ml with deionized water. After shaking, the treatment solutions (15 ml each) are transferred to each of two 50 ml test tubes. […] Twenty seeds are used in each treatment. Dry seed, ethanol/water-imbibed seed (1% ethanol in water, v/v), and water-imbibed seeds are included as controls. […]
Property: Significant Visual Observations on Line 719

Some entries whose results are on file:
>>> assay_value("C=C1C[C@]23C[C@@]1(O)CC[C@H]2[C@@]12CCC[C@@](C)(C(=O)O1)[C@H]2[C@@H]3C(=O)O [GA20]")
"Good rescue of dwarfs"
>>> assay_value("C=C1C[C@]23C[C@@]1(O)CC[C@H]2[C@@]12CC[C@H](O)[C@@](C)(C(=O)O1)[C@H]2[C@@H]3C(=O)O [GA1]")
"Good rescue of dwarfs"
>>> assay_value("C=C1C[C@]23C[C@@]1(O)CC[C@H]2[C@@]12CC=C[C@@](C)(C(=O)O1)[C@H]2[C@@H]3C(=O)O [GA5]")
"Good rescue of dwarfs"
>>> assay_value("C=C1C[C@@]23CC[C@H]4[C@@](C)(CCC[C@@]4(C)C(=O)O)[C@@H]2CC[C@@H]1C3 [kaurenoic acid]")
"Poor rescue"

Now consider a different compound.
What value of Significant Visual Observations on Line 719 has been recorded for this entry: C=C1C[C@]23C[C@H]1CC[C@H]2[C@]1(C)CCC[C@@](C)(C(=O)O)[C@H]1[C@@H]3C(=O)O [GA12]
Poor rescue

###

System: constitutively GA-deficient transgenic dwarf soybeans (line 719)
Protocol: Summary of first two greenhouse experiments, rescue of GA-deficient soybeans
Type: in vivo, Glycine max
Parameters: key: +: transgenic soybeans are rescued; 0: transgenic soybeans are not rescued
Experimental Parameters: 0.25 mg/ml solution (ethanol-water)
Property: Rescue of GA-deficient soybeans

>>> assay_value("C=C1C[C@]23C[C@@]1(O)CC[C@H]2[C@@]12C=C[C@H](O)[C@@](C)(C(=O)O1)[C@H]2[C@@H]3C(=O)O [GA3, gibberellic acid]")
"+"
>>> assay_value("C=C1C[C@]23C[C@@]1(O)CC[C@H]2[C@@]12CC[C@H](O)[C@@](C)(C(=O)O1)[C@H]2[C@@H]3C(=O)O [GA1]")
"+"
>>> assay_value("C=C1C[C@]23C[C@H]1CC[C@H]2[C@]1(C)CCC[C@@](C)(C(=O)O)[C@H]1[C@@H]3C(=O)O [GA12]")
"+"
>>> assay_value("C=C1C[C@@]23CC[C@@H]4C(C)(C)CCC[C@@]4(C)[C@@H]2CC[C@@H]1C3 [kaurene]")
0
>>> assay_value("C=C1C[C@]23C[C@@]1(O)CC[C@H]2[C@@]12CC=C[C@@](C)(C(=O)O1)[C@H]2[C@@H]3C(=O)O [GA5]")
"+"

What value of Rescue of GA-deficient soybeans has been recorded for this entry: C=C1C[C@]23C[C@H]1CC[C@H]2[C@@]12CCC[C@@](C)(C(=O)O1)[C@H]2[C@@H]3C(=O)O [GA9]
+

What value of Rescue of GA-deficient soybeans has been recorded for this entry: C=C1C[C@]23C[C@H]1CC[C@H]2[C@@]12CC[C@H](O)[C@@](C)(C(=O)O1)[C@H]2[C@@H]3C(=O)OC [GA4 methyl ester]
0
